# Tested on: T. cruzi intracellular amastigotes in H9c2 cells
# assay-remarks: Rate-of-Kill (RoK) high-content imaging assay, amastigotes per cell (AM/CELL) and curve descriptors
# Assay type: cell-based, Trypanosoma cruzi
# run-parameters: maximum effect at 72 h, RoK assay
# Experimental: For this high-content intracellular imaging assay, H9c2 cells were seeded in 225 cm^2 T- FLASK in DMEM with 10% FBS for 4 h to allow attachment. […] Trypomastigotes were then collected and counted in a CASY Cell Counter using the 60 μm capillary. […] Cells were counted in a CASY Cell Counter, using the 150 μm capillary, and their density set at 5 x 10^4 cells/mL in supplemented DMEM. […] Then plates were read in a PerkinElmer Opera Phenix using a 20x objective, 3 fields per well. […]
Consider the cut-off 30%. If the recorded ME_72h (%) is strictly smaller, the label is yes (1); if not, the label is no (0).

Input line: Regarding CCC(=O)Nc1ccc(C(=O)Nc2ccccc2-c2ccccc2)cc1 [TCMDC-143286] , kindly confirm whether its ME_72h (%) is beneath 30%.
Output line: no (0)

Input line: In the record for CN(C)Cc1ccc(N2CCC(NS(=O)(=O)c3ccc(Cl)cc3)CC2)cc1 [TCMDC-143623] , is ME_72h (%) less than 30%?
Output line: yes (1)

Input line: Problem: For the compound O=C(NCCc1ccccn1)C(c1cn[nH]c1)N1CCN(c2ccc(Cl)c(Cl)c2)CC1 (centres unmarked) [TCMDC-143411] , is ME_72h (%) under 30%?
Output line: no (0)

Input line: Would you kindly verify if ME_72h (%) of CCCCn1nnnc1CSc1nc(C)cc(C)c1C#N [TCMDC-143315] is strictly less than 30%?
Output line: no (0)

Input line: Is ME_72h (%) strictly under 30% for the entry Cc1nn(C)c(Cl)c1CN(Cc1cccnc1)Cc1ccsc1 [TCMDC-143477] ?
Output line: yes (1)

Input line: Please indicate whether the reported ME_72h (%) of COc1ccc(CN(C)Cc2ccncc2)cc1-c1ccc(S(=O)(=O)NC2CCC2)s1.O=C(O)C(F)(F)F.O=C(O)C(F)(F)F [TCMDC-143084] is strictly below 30%.
Output line: no (0)

Input line: Please check: ME_72h (%) for CS(=O)(=O)NC1CCC(Oc2cc3cnccc3cc2-c2ccsc2)CC1.O=C(O)C(F)(F)F (centres unmarked) [TCMDC-143302] , strictly under 30% or not?
Output line: yes (1)

----------
# Test system: T. cruzi intracellular amastigotes in H9c2 cells
# assay-remarks: Rate-of-Kill (RoK) high-content imaging assay, amastigotes per cell (AM/CELL) and curve descriptors
# Assay type: cell-based, Trypanosoma cruzi
# run-parameters: Time 48; sheet figure 4 A
The class of a record is decided solely by its measured AM/CELL NORM; consult Low: < -60; Mid: ≥ -60 and < 3; High: ≥ 3

Input line: In plain terms, what class is COc1ccc(-c2nc3ncccc3o2)cc1NC(=O)c1cccs1 ?
Output line: High

Input line: Which class holds CCC(=O)Nc1ccc(-c2nc3ccc(Cl)cc3[nH]2)cc1 ?
Output line: Low

Input line: Category lookup for the compound CC(C)Nc1nccc(-c2c(-c3ccc(F)cc3)ncn2C2CCOCC2)n1
Output line: Mid

Input line: Given CCN(CC)S(=O)(=O)c1ccc(C(=O)Nc2cc(C)nn2-c2nc(C)c(C)c(=O)[nH]2)cc1 , name the class its AM/CELL NORM places it in.
Output line: Mid

Input line: GET /class?item= O=C(NCCc1ccccn1)C(c1cn[nH]c1)N1CCN(c2ccc(Cl)c(Cl)c2)CC1 (centres unmarked)
Output line: High

Input line: Could you place CN(C(=O)Nc1ccc2c(c1)CCN(C1CCC1)CC2)c1ccc(C#N)cc1.Cl in its proper category? Many thanks.
Output line: Mid

Input line: Into which category would you place O=C(C1CCCCC1)N1CCN(c2nnc(-c3ccccc3)c3ccccc23)CC1 ?
Output line: Mid

Input line: Tag the class for Cn1nccc1-c1cc(OC(CN)c2ccccc2)cnc1-c1ccco1.O=C(O)C(F)(F)F.O=C(O)C(F)(F)F (centres unmarked)
Output line: Low

Input line: Textbook exercise: identify the category of the compound given here, O=C(O)/C=C\C(=O)O.O=C(c1ccc(OCCCc2cnc[nH]2)cc1)C1CC1 , according to its measured value.
Output line: Mid

Input line: Given COc1ccc(C(=O)Nc2cc(C(F)(F)F)ccc2N2CCOCC2)c(OC)c1 , name the class its AM/CELL NORM places it in.
Output line: High

Input line: Hi, small favor: classify COc1cc(-c2nc(N3CCOCC3)sc2-c2ccnc(NC3CCOCC3)n2)ccc1Cl.O=C(O)C(F)(F)F by its AM/CELL NORM when you get a moment.
Output line: High

Input line: # bin lookup: classify O=C(c1cccc(Cl)c1Cl)N1CCn2c1nc(-c1ccncc1)cc2=O by its AM/CELL NORM
Output line: Low

Input line: Sort CCn1nccc1CN(C)C(=O)C=Cc1ccc(Cl)cc1 into one of the categories.
Output line: Low

Input line: Class for CCN(Cc1ccncc1)Cc1ccc(NC(=O)c2cc(-c3ccc(F)cc3)n[nH]2)cc1 ?
Output line: Low

Input line: Please report the category associated with O=C(NCc1ccncc1)c1ccccc1N1CCCN(C(=O)Cc2ccc(F)c(F)c2)CC1.O=C(O)C(F)(F)F.O=C(O)C(F)(F)F , nothing else.
Output line: Low

Input line: Please let me know in which category the item CC(C)(C)C(Cn1ccnc1)NC(=O)c1ccc2nc(C3CC3)oc2c1 (centres unmarked) belongs.
Output line: Low

Input line: GET /class?item= CNc1cc(C)nc(C2CN(C(=O)c3n[nH]c4ccccc34)CCO2)c1 (centres unmarked)
Output line: High

Input line: Which category does the recorded AM/CELL NORM put CNc1c(C(N)=O)c(-c2ccc3scnc3c2)nn1CC(F)(F)F.O=C(O)C(F)(F)F in?
Output line: Mid

Input line: Hi, small favor: classify CC(CNS(=O)(=O)c1ccc(OC(F)F)cc1)c1ccc(NC(=O)c2ccncc2)cc1 (centres unmarked) by its AM/CELL NORM when you get a moment.
Output line: Mid

Input line: Please classify: O=C(NC1C(=O)N(c2ccccc2)C1c1cccnc1)c1ccc(Cl)s1 (centres unmarked)
Output line: Low

Input line: Textbook exercise: identify the category of the compound given here, Cc1ccc(C)c(OC2CCN(C(=O)C(C)n3ccnc3)CC2)c1 (centres unmarked) , according to its measured value.
Output line: Mid

Input line: For the record COc1ccc(C2CC(c3ccccc3Cl)=NN2C(=O)CNC(=O)C2CCC2)cc1 (centres unmarked) , report the class its AM/CELL NORM corresponds to.
Output line: High

Input line: Please indicate the class for Cc1c(C#N)c([N+](=O)[O-])nn1Cc1cccc(Cl)c1Cl based on its AM/CELL NORM.
Output line: High

Input line: Assign a category based on measured AM/CELL NORM for Clc1ccc(Sc2cnccc2N2CCOCC2)cc1 and give only the class name.
Output line: Mid

Input line: Into which category would you place O=C(NCCc1ccccc1Cl)c1cccn1-c1cccnc1 ?
Output line: Low

Input line: Which class does Cn1cc(CN2CCN(c3ccc4c(c3)CCN(C(=O)[C@H]3C[C@@H]3c3ccccc3)CC4)CC2)cn1 fall in?
Output line: High

Input line: Lab note: sort CC(=Cc1ccccc1)CN1CCC(=O)N(Cc2cccnc2)CC1 into the matching AM/CELL NORM band.
Output line: Low

Input line: Hi, small favor: classify CN1CCCN(C(=O)c2ccc(N3CCCC3)cc2Cl)CC1 by its AM/CELL NORM when you get a moment.
Output line: High

Input line: Please classify: Cn1cncc1CN1CCC2(CC1)COC(Cc1ccccc1)C2 (centres unmarked)
Output line: Mid

Input line: Where would COc1ccc2c(Cl)c(C(=O)N3CCC3)sc2c1Cl land among the classes by reported AM/CELL NORM?
Output line: Low

Input line: Which class holds OCCCNc1nc(Nc2ccncc2)nc2ccccc12 ?
Output line: Mid

Input line: Sort CC(C)N(C(=O)CN1C(=O)C(N)C(=O)N(c2ccccc2)c2ccccc21)c1ccccc1 (centres unmarked) into one of the categories.
Output line: Mid

Input line: Would you mind sorting CCC(=O)Nc1ccc(C(=O)Nc2ccccc2-c2ccccc2)cc1 into the appropriate category?
Output line: High

Input line: Band of COc1ccccc1-c1c(C)[nH]c2nc(N)nc(C)c12 ?
Output line: High

----------
Record form. Attribute: ME_72h. Fill in for each entry.
# System: T. cruzi intracellular amastigotes in H9c2 cells
# assay-remarks: Rate-of-Kill (RoK) high-content imaging assay, amastigotes per cell (AM/CELL) and curve descriptors
# Format: cell-based, Trypanosoma cruzi
# Parameters: key: % reduction in parasite burden (cidal response)
# run-parameters: 72h, figure 5
Give only the figure.

Input line: Requested field: ME_72h. Item: CCOc1cnn(C)c(=O)c1Nc1ccc(C(=O)NCc2ccc(F)cc2)cc1 [TCMDC-143319]
Output line: 13.1125

Input line: If you can, please state the reported ME_72h value of Cc1ccc(C)c(OC2CCN(C(=O)C(C)n3ccnc3)CC2)c1 (centres unmarked) [TCMDC-143481] .
Output line: 55.4241

Input line: What value of ME_72h has been reported for the following compound? O=C(O)C(F)(F)F.O=c1ccc2ccc(F)c3c2n1C[C@H]3CN1CCC(NCc2cc3ccccc3o2)CC1 [TCMDC-143301]
Output line: 49.4796

Input line: Would you kindly share the measured ME_72h for Cc1c(C(C)NC(=O)Nc2cccc(Cl)c2)sc2ncnn12 (centres unmarked) [TCMDC-143405] ?
Output line: 41.1216

Input line: Consider the compound CCCCNc1nccc(-c2c(-c3ccc(F)cc3)nn3c(N4CCOCC4)cccc23)n1 [TCMDC-143617] and give its measured ME_72h.
Output line: -488.335

Input line: State the recorded ME_72h for this entry: Cn1nccc1-c1cc(OC(CN)c2ccccc2)cnc1-c1ccco1.O=C(O)C(F)(F)F.O=C(O)C(F)(F)F (centres unmarked) [TCMDC-143221]
Output line: 30.5438

Input line: Which ME_72h value is on record for CC(C)Nc1nccc(-c2c(-c3ccc(F)cc3)ncn2C2CCOCC2)n1 [TCMDC-143379] ?
Output line: 36.7081

Input line: GET /values?readout=ME_72h&item= CN(C)Cc1ccc(-c2ccc(S(=O)(=O)NCC3CCCO3)c(F)c2)cc1.O=C(O)C(F)(F)F (centres unmarked) [TCMDC-143085]
Output line: 66.9859

Input line: ME_72h lookup needed for CS(=O)(=O)c1ccc(CC(=O)Nc2nc(-c3ccc(Cl)s3)cs2)cc1 [TCMDC-143224] , thanks.
Output line: 53.6478

Input line: Entry under review: O=C(NCCc1cccnc1)c1csc(-c2ccccc2)n1 [TCMDC-143203] . Reported ME_72h?
Output line: 54.0545

Input line: Would you kindly share the measured ME_72h for COc1ccc(CN(C)Cc2ccncc2)cc1-c1ccc(S(=O)(=O)NC2CCC2)s1.O=C(O)C(F)(F)F.O=C(O)C(F)(F)F [TCMDC-143084] ?
Output line: 44.4783

Input line: What measured ME_72h goes with COc1ccc(C2CC(c3ccccc3Cl)=NN2C(=O)CNC(=O)C2CCC2)cc1 (centres unmarked) [TCMDC-143130] ?
Output line: 85.0018

Input line: Look at this compound and give its reported ME_72h. CCC(=O)Nc1ccc(C(=O)Nc2ccccc2-c2ccccc2)cc1 [TCMDC-143286]
Output line: 89.3246

Input line: What measured ME_72h goes with OCCCNc1nc(Nc2ccncc2)nc2ccccc12 [TCMDC-143476] ?
Output line: -23.113

Input line: Item CCN(CC)S(=O)(=O)c1ccc(C(=O)Nc2cc(C)nn2-c2nc(C)c(C)c(=O)[nH]2)cc1 [TCMDC-143273] has what recorded ME_72h?
Output line: 21.9061

Input line: Form field: reported ME_72h of COc1ccc(C(=O)Nc2cc(C(F)(F)F)ccc2N2CCOCC2)c(OC)c1 [TCMDC-143310]
Output line: 94.1302

Input line: Reported ME_72h, compound CC(=Cc1ccccc1)CN1CCC(=O)N(Cc2cccnc2)CC1 [TCMDC-143421] : ____
Output line: -1.901
